The following compounds are listed with their measured CC50 values.
system: pulp cells (HPC); experiment: Cytotoxicity (MTT, 48 h) against HPC non-malignant cells; format: cell-based, human; settings: mean ± S.D. of triplicate

>  <smilesRepresentation>
O=C1C(=Cc2ccc(F)c(F)c2)CN(C(=O)C(Cl)Cl)CC1=Cc1ccc(F)c(F)c1

>  <measurementUnit>
nM

>  <CC50>
1280

$$$$
>  <smilesRepresentation>
Cc1ccc(C=C2CN(C(=O)C(Cl)Cl)CC(=Cc3ccc(C)cc3)C2=O)cc1

>  <measurementUnit>
nM

>  <CC50>
3930

$$$$
>  <smilesRepresentation>
O=C1C(=Cc2ccc(F)cc2)CN(C(=O)C(Cl)Cl)CC1=Cc1ccc(F)cc1

>  <measurementUnit>
nM

>  <CC50>
1300

$$$$
>  <smilesRepresentation>
COc1cc(/C=C2\CN(C(=O)C(Cl)Cl)C/C(=C\c3cc(OC)c(OC)c(OC)c3)C2=O)cc(OC)c1OC

>  <measurementUnit>
nM

>  <CC50>
4000

$$$$

----------
test system: HSC-3 squamous cell carcinoma cells; test: Cytotoxicity (MTT, 48 h) against HSC-3 cells; assay type: cell-based, human; details: 48 h, MTT, mean ± S.D. of triplicate
Below, each entry is listed with its recorded CC50.
measuredMetric: CC50 (nM)

>  <molecule>
COc1cc(/C=C2\CN(C(=O)C(Cl)Cl)C/C(=C\c3cc(OC)c(OC)c(OC)c3)C2=O)cc(OC)c1OC [Compound 1h]

>  <measurementUnit>
nM

>  <relation>
=

>  <resultNumber>
1370

$$$$
>  <molecule>
O=C1C(=Cc2ccc(F)cc2)CN(C(=O)C(Cl)Cl)CC1=Cc1ccc(F)cc1 [Compound 1b]

>  <measurementUnit>
nM

>  <relation>
=

>  <resultNumber>
440

$$$$
>  <molecule>
O=C1C(=Cc2ccc(Cl)c(Cl)c2)CN(C(=O)C(Cl)Cl)CC1=Cc1ccc(Cl)c(Cl)c1 [Compound 1e]

>  <measurementUnit>
nM

>  <relation>
=

>  <resultNumber>
130

$$$$
>  <molecule>
Cc1ccc(C=C2CN(C(=O)C(Cl)Cl)CC(=Cc3ccc(C)cc3)C2=O)cc1 [Compound 1j]

>  <measurementUnit>
nM

>  <relation>
=

>  <resultNumber>
460

$$$$
>  <molecule>
CN(C)c1ccc(C=C2CN(C(=O)C(Cl)Cl)CC(=Cc3ccc(N(C)C)cc3)C2=O)cc1 [Compound 1l]

>  <measurementUnit>
nM

>  <relation>
=

>  <resultNumber>
45500

$$$$
>  <molecule>
O=C1C(=Cc2ccc(F)c(F)c2)CN(C(=O)C(Cl)Cl)CC1=Cc1ccc(F)c(F)c1 [Compound 1c]

>  <measurementUnit>
nM

>  <relation>
=

>  <resultNumber>
350

$$$$
>  <molecule>
COc1ccc(/C=C2\CN(C(=O)C(Cl)Cl)C/C(=C\c3ccc(OC)cc3)C2=O)cc1 [Compound 1f]

>  <measurementUnit>
nM

>  <relation>
=

>  <resultNumber>
1000

$$$$
>  <molecule>
O=C([O-])C(Cl)Cl.[Na+] [SDA, sodium dichloroacetate, reference compound]

>  <measurementUnit>
nM

>  <relation>
>

>  <resultNumber>
200000

$$$$
>  <molecule>
O=C1/C(=C/c2ccc3c(c2)OCO3)CN(C(=O)C(Cl)Cl)C/C1=C\c1ccc2c(c1)OCO2 [Compound 1i]

>  <measurementUnit>
nM

>  <relation>
=

>  <resultNumber>
740

$$$$
>  <molecule>
O=C1C(=Cc2ccccc2)CN(C(=O)C(Cl)Cl)CC1=Cc1ccccc1 [Compound 1a]

>  <measurementUnit>
nM

>  <relation>
=

>  <resultNumber>
1290

$$$$

----------
system: Ca9-22, HSC-2, HSC-3, and HSC-4 cells; test: Average cytotoxicity, selectivity and PSE over the four carcinoma lines; type: cell-based, human; settings: Homo sapiens; average over Ca9-22, HSC-2, HSC-3, HSC-4
Binarize CC50 at 200 nM; below is Y, at or above is N.

>  <compound>
O=C1/C(=C/c2ccc(Cl)cc2)CN(C(=O)C(Cl)Cl)C/C1=C\c1ccc(Cl)cc1

>  <subjectOfTest>
Ca9-22, HSC-2, HSC-3, and HSC-4 cells

>  <group>
Y

$$$$
>  <compound>
COc1cccc2c1C(=O)c1c(O)c3c(c(O)c1C2=O)C[C@@](O)(C(=O)CO)C[C@@H]3O[C@H]1C[C@H](N)[C@H](O)[C@H](C)O1 [DXR, doxorubicin, reference compound]

>  <subjectOfTest>
Ca9-22, HSC-2, HSC-3, and HSC-4 cells

>  <group>
N

$$$$
>  <compound>
O=C1C(=Cc2ccccc2)CNCC1=Cc1ccccc1

>  <subjectOfTest>
Ca9-22, HSC-2, HSC-3, and HSC-4 cells

>  <group>
N

$$$$
>  <compound>
O=C1/C(=C/c2ccc([N+](=O)[O-])cc2)CN(C(=O)C(Cl)Cl)C/C1=C\c1ccc([N+](=O)[O-])cc1

>  <subjectOfTest>
Ca9-22, HSC-2, HSC-3, and HSC-4 cells

>  <group>
Y

$$$$
>  <compound>
CC(=O)N1C/C(=C\c2ccccc2)C(=O)/C(=C/c2ccccc2)C1

>  <subjectOfTest>
Ca9-22, HSC-2, HSC-3, and HSC-4 cells

>  <group>
N

$$$$
>  <compound>
COc1ccc(/C=C2\CN(C(=O)C(Cl)Cl)C/C(=C\c3ccc(OC)c(OC)c3)C2=O)cc1OC

>  <subjectOfTest>
Ca9-22, HSC-2, HSC-3, and HSC-4 cells

>  <group>
Y

$$$$
>  <compound>
O=c1[nH]cc(F)c(=O)[nH]1 [Compound 5-FU, 5-fluorouracil, reference compound]

>  <subjectOfTest>
Ca9-22, HSC-2, HSC-3, and HSC-4 cells

>  <group>
N

$$$$

----------
test system: Ca9-22 squamous cell carcinoma cells; test: Cytotoxicity (MTT, 48 h) against Ca9-22 cells; format: cell-based, human; conditions: 48 h, MTT, mean ± S.D. of triplicate
The following compounds are listed with their measured CC50 values.

>  <compound>
O=C1/C(=C/c2ccc3c(c2)OCO3)CN(C(=O)C(Cl)Cl)C/C1=C\c1ccc2c(c1)OCO2

>  <CC50>
170 nM

$$$$
>  <compound>
COc1cc(/C=C2\CN(C(=O)C(Cl)Cl)C/C(=C\c3cc(OC)c(OC)c(OC)c3)C2=O)cc(OC)c1OC

>  <CC50>
720 nM

$$$$
>  <compound>
O=C([O-])C(Cl)Cl.[Na+] [SDA, sodium dichloroacetate, reference compound]

>  <CC50>
> 200000 nM

$$$$
>  <compound>
CN(C)c1ccc(C=C2CN(C(=O)C(Cl)Cl)CC(=Cc3ccc(N(C)C)cc3)C2=O)cc1

>  <CC50>
13600 nM

$$$$
>  <compound>
Cc1ccc(C=C2CN(C(=O)C(Cl)Cl)CC(=Cc3ccc(C)cc3)C2=O)cc1

>  <CC50>
150 nM

$$$$
>  <compound>
O=C1C(=Cc2ccc(Cl)c(Cl)c2)CN(C(=O)C(Cl)Cl)CC1=Cc1ccc(Cl)c(Cl)c1

>  <CC50>
40 nM

$$$$
>  <compound>
COc1ccc(/C=C2\CN(C(=O)C(Cl)Cl)C/C(=C\c3ccc(OC)cc3)C2=O)cc1

>  <CC50>
390 nM

$$$$
>  <compound>
O=C1C(=Cc2ccccc2)CN(C(=O)C(Cl)Cl)CC1=Cc1ccccc1

>  <CC50>
420 nM

$$$$
